- Test system: SK-MEL-28 melanoma
- test-details: NCI-60 one-dose screen, 48 h
- measurement-setup: 10 µM unless noted
The panel holds about 83,000 compounds, 20% with a hit somewhere; the sample as a whole holds those more often. Activity calls are given as the source filed them. The calls were made as follows: active = growth percent below 10; inactive = the rest.
In this exercise, the only acceptable responses are active, inactive

Task: Per the records of this test, what outcome belongs to `COc1cc2nc(N3CCCC3)nc(NCc3ccccc3)c2cc1OC` ?
Result: inactive

Task: Answer briefly: the call reported for `NS(=O)(=O)c1ccc(CN=C2NC(=O)S/C2=C\c2ccc(Br)cc2)cc1` in this assay.
Result: inactive

Task: Hi team, can someone confirm the assay call for `CN1CCN(CCCOc2cccc3nc(Nc4cc(Cl)cc(Cl)c4)ccc23)CC1` ?
Result: active

Task: Each compound tested received a call. Report the one for Nc1n[nH]c2ccc([C@@H]3Nc4ccc5cn[nH]c5c4[C@H]4C5CCC(C5)[C@@H]34)cc12 (some centres undefined) .
Result: inactive

Task: Called result for Cc1cc(N2CCCC2)nc(NC2CCCC(Nc3ccnc4cc(Cl)ccc34)C2)n1 (centres undefined)
Result: active

Task: Test call for this compound, please: `O=C(Cc1ccccc1Nc1c(Cl)cccc1Cl)NN1C(=O)/C(=C/c2ccc(Br)cc2)SC1=S`
Result: inactive

Task: Could you please tell me the result logged for `Cc1ccc(OC(=O)c2ccc(Cl)cc2)cc1` in this assay?
Result: inactive

Task: Please indicate how the test categorized `CCCc1cc(=O)n2c(C(=O)Nc3ccc(F)cc3)c(C(=O)Nc3ccc(F)cc3)sc2n1` .
Result: inactive

Task: Answer briefly: the call reported for `O=S(=O)(Nc1ccc(OC(F)F)cc1)c1ccc(-c2cnc(C3CC3)o2)cc1` in this assay.
Result: inactive

Task: Could you please tell me the result logged for C=CCSSc1ncnc2c1ncn2C1OC(CO)C(O)C1O (centres undefined) in this assay?
Result: inactive

Task: Returns: the outcome recorded for `CCOC(=O)c1sc2nc(-c3cccc(OC)c3)nc(N3CCOCC3)c2c1C` in this assay.
Result: inactive

Task: Outcome logged for COc1ccc(SC2c3cc(OC)c(OC)cc3Oc3nc(N)c(C#N)c(N)c32)cc1 (centres undefined) in this assay:
Result: active

Task: Entry `CC1=C[C@H]2c3c(c(O)c(O)c4oc5ccccc5c(=O)c34)[C@H](c3cc(O)c(O)c4oc5ccccc5c(=O)c34)[C@H]2C(C)(C)C1` : call = ?
Result: inactive

Task: Dear all, I need the recorded test outcome for `O=C(CN(C(=O)Cn1c(=O)n2nnnc2c2ccccc21)c1ccccc1C(F)(F)F)Nc1ccc(C(F)(F)F)cc1` , thank you.
Result: inactive

Task: Please let me know the test result on file for `CN1CCN(Cc2ccc(NC(=O)c3cncc(C#Cc4cncn5ccnc45)c3)cc2C(F)(F)F)CC1` .
Result: inactive

Task: Could you check what this test reported for `CC(C)(O)c1cn(CCCCN2C(=O)C(=O)c3ccccc32)nn1` ?
Result: inactive

Task: Given `COc1ccc(/C=C/C(=O)c2ccc(O)c(CN3CCN(c4cc5c(cc4F)c(=O)c(C(=O)O)cn5C4CC4)CC3)c2)cc1` , state the outcome it received in this test.
Result: inactive

Task: For COc1ccc(SC2c3ccc(C)cc3Oc3nc(N)c(C#N)c(N)c32)cc1 (centres undefined) , which call appears in the assay record?
Result: active

Task: Assay outcome for `CN(C)c1ccc(NC(=O)c2ccc(/C=C/C(=O)c3ncc[nH]3)cc2)cc1` : what was it?
Result: inactive
